- test system: Wee1-like protein kinase (Homo sapiens) (UniProt P30291)
- test: Wee1 degradation inhibitors, primary screen, cell-based, HeLa, Wee1K328M-luciferase, luminescence (AID 1321);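 note: cells exposed to compound for 20 h before luminescence read; 0% = DMSO alone and 100% = MG132 at 30 µM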
- run conditions: HeLa Luc-Wee1K328M stability, at 5 µM, 100% = proteasome inhibitor MG132 effect
About 2,600 (1.2%) of roughly 220,000 compounds were called active.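 Rule for the calls: active = activation above the mean of all tested compounds plus 3 SD, set per screening run (cut at about 8.8% in these data); inactive = the rest.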 The sample as a whole holds a higher share of actives than the screen did.
Your answer must be one of the following: active, inactive

Example entries begin here.
| compound | class |
| --- | --- |
| O=C(c1[nH]ncc1-c1ccc(Cl)cc1)C1CO1 (configuration not stated) | inactive |
| COc1ccccc1-n1cn[nH]c1=S | inactive |
| Cc1nc2cc(NC(=O)Nc3cccc(F)c3)ccc2n1C | inactive |
| CCCCCC(=O)Nc1ccc2oc(-c3ccncc3)nc2c1 | inactive |
| COc1cccc(-c2nc3cc(C)ccc3o2)c1 | inactive |
| Cc1nc2cc(NC(=O)NC3CC3)ccc2n1C | active |
| CCc1ccc2oc(-c3ccc(N)cc3)nc2c1 | active |
| Nc1ccccc1SC(C[N+](=O)[O-])c1ccccc1 (configuration not stated) | inactive |

QUERY: Could you please tell me the result logged for C=CCN(C(=O)Nc1ccc2c(c1)nc(C)n2C)c1ccccc1 in this assay?
RESULT: inactive

QUERY: Assay outcome for COC(=O)/C=C(\Oc1ccccc1)C1(O)CCCCC1 : what was it?
RESULT: inactive

QUERY: Hey, what did the test say about O=C(NC(=O)c1cc(OCC(F)(F)F)ccc1OCC(F)(F)F)Nc1ccccc1 ?
RESULT: inactive

QUERY: # lookup: test call for O=C(Cn1ncc(N2CCCC2)c(Br)c1=O)c1ccc(Cl)cc1
RESULT: active

====

- test system: Wee1-like protein kinase (Homo sapiens)
- test: Wee1 degradation inhibitors, primary screen, cell-based, HeLa, Wee1K328M-luciferase, luminescence (AID 1321);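 note: cells exposed to compound for 20 h before luminescence read; 0% = DMSO alone and 100% = MG132 at 30 µM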
- run conditions: HeLa Luc-Wee1K328M stability, at 5 µM, stronger effect = higher value, 100% = proteasome inhibitor MG132 effect
Out of some 220,000 compounds screened, about 2,600 (1.2%) were called active. For the sample, actives were picked, then their nearest neighbours and some compounds at random.
Recorded reporter increase values for a group of molecules are listed next.
Report the figure in % without appending any unit label.

| molecule | test system | quantity name | measurement unit | recorded value |
| --- | --- | --- | --- | --- |
| Cc1cccc2c(=O)n3c(nc12)CCCCC3 | Wee1-like protein kinase (Homo sapiens) | reporter increase | % | -0.11 |
| CN(C)CCCCCN(C)Cc1cc2ccccc2o1 | Wee1-like protein kinase (Homo sapiens) | reporter increase | % | 9.64 |
| COc1ccc(N2CCN(C(c3cc4ccc(C)cc4[nH]c3=O)c3nnnn3C3CCCC3)CC2)cc1 (centres undefined) | Wee1-like protein kinase (Homo sapiens) | reporter increase | % | 0.68 |
| COc1ccc(CCNC(=O)C(=O)Nc2ccc3nc4n(c(=O)c3c2)CCCCC4)cc1OC | Wee1-like protein kinase (Homo sapiens) | reporter increase | % | 1.04 |
| CCCOC(=O)c1cc2ccccc2oc1=O | Wee1-like protein kinase (Homo sapiens) | reporter increase | % | -1.59 |

QUERY: Need reporter increase, item Cc1ccc(NC(=O)CN2CCc3ccccc3C2)cc1
RESULT: 12.7
